System: Vero-E6 cells
Assay: Cytotoxicity CC100 in Vero-E6 cells (72 h)
Settings: Vero-E6 cells, 72h
measuredMetric: CC100 (100% cytotoxic concentration) (µg/mL)
Your answer should be a plain number; it is taken to be in µg/mL.

QUERY: Quick one: give measured CC100 (100% cytotoxic concentration) for CC(C)c1cc2c(cc1O)[C@@]1(C)CCC[C@](C)(C(=O)O)[C@@H]1CC2=O [Compound 23b]
RESULT: 25

QUERY: Quick one: give measured CC100 (100% cytotoxic concentration) for CC(C)c1ccc2c(c1)CC[C@H]1C(C)(C(=O)O)CCC[C@]21C (some centres unmarked)
RESULT: 50

QUERY: Quick one: give measured CC100 (100% cytotoxic concentration) for COC(=O)[C@@]1(C)CCC[C@]2(C)c3cc(O)c(C(C)C)cc3C(=O)C[C@@H]12 [Compound 22b]
RESULT: 25

QUERY: Quick one: give measured CC100 (100% cytotoxic concentration) for COC(=O)[C@]1(C)CCC[C@]2(C)c3cc(O)c(C(C)C)cc3CC[C@@H]12 [Compound 18a]
RESULT: 50

----------
Tested on: Vero-E6 cells
Assay: Cytotoxicity CC100 in Vero-E6 cells (72 h)
Details: Vero-E6 cells, 72h
Answer each item with its documented CC100 (100% cytotoxic concentration).

QUERY: Quick one: give measured CC100 (100% cytotoxic concentration) for COC(=O)[C@]1(C)CCC[C@]2(C)c3ccc(C(C)C)c(O)c3CC[C@@H]12 [Compound 24, methyl 14-hydroxy-dehydroabietate]
RESULT: >25 µg/mL

QUERY: Quick one: give measured CC100 (100% cytotoxic concentration) for CC(C)c1cc2c(cc1O)[C@@]1(C)CCCC(C)(C)[C@@H]1CC2 [Compound 5, (+)-ferruginol]
RESULT: >50 µg/mL

QUERY: Quick one: give measured CC100 (100% cytotoxic concentration) for CC(C)c1ccc2c(c1O)CC[C@H]1[C@](C)(CO)CCC[C@]21C
RESULT: >25 µg/mL

QUERY: Quick one: give measured CC100 (100% cytotoxic concentration) for CC(C)c1ccc2c(c1)CC[C@H]1C(C)(CO)CCC[C@]21C (stereo partly shown)
RESULT: >50 µg/mL

QUERY: Quick one: give measured CC100 (100% cytotoxic concentration) for COC(=O)[C@@]1(C)CCC[C@]2(C)c3cc(O)c(C(C)C)cc3CC[C@@H]12 [Compound 18b]
RESULT: >50 µg/mL

QUERY: Quick one: give measured CC100 (100% cytotoxic concentration) for CC(C)c1ccc2c(c1O)CC[C@H]1[C@](C)(C(=O)O)CCC[C@]21C
RESULT: >25 µg/mL

QUERY: Quick one: give measured CC100 (100% cytotoxic concentration) for CC(C)c1cc2c(cc1O)[C@@]1(C)CCC[C@@](C)(CN3C(=O)c4ccccc4C3=O)[C@@H]1CC2
RESULT: >50 µg/mL

----------
Test system: BHK-21 cells
Assay: Cytotoxicity CC100 in BHK-21 cells (6 days)
Answer each item with its documented CC100 (100% cytotoxic concentration).

QUERY: Recall the reported CC100 (100% cytotoxic concentration) of CC(C)c1cc2c(cc1O)[C@@]1(C)CCC[C@](C)(C(=O)O)[C@@H]1CC2 [Compound 19b, lambertic acid] when tested on BHK-21 cells.
RESULT: >50 µg/mL

QUERY: Recall the reported CC100 (100% cytotoxic concentration) of CC(C)c1ccc2c(c1O)CC[C@H]1[C@](C)(C(=O)O)CCC[C@]21C when tested on BHK-21 cells.
RESULT: >25 µg/mL

QUERY: Recall the reported CC100 (100% cytotoxic concentration) of CC(C)c1ccc2c(c1O)CC[C@H]1[C@](C)(CO)CCC[C@]21C when tested on BHK-21 cells.
RESULT: >25 µg/mL

QUERY: Recall the reported CC100 (100% cytotoxic concentration) of CC(C)c1cc2c(cc1O)[C@@]1(C)CCCC(C)(C)[C@@H]1CC2 [Compound 5, (+)-ferruginol] when tested on BHK-21 cells.
RESULT: >50 µg/mL

QUERY: Recall the reported CC100 (100% cytotoxic concentration) of COC(=O)[C@]1(C)CCC[C@]2(C)c3ccc(C(C)C)c(O)c3CC[C@@H]12 [Compound 24, methyl 14-hydroxy-dehydroabietate] when tested on BHK-21 cells.
RESULT: >25 µg/mL

----------
Answer each item with its documented CC100 (100% cytotoxic concentration).
System: Vero-E6 cells
Test: Cytotoxicity CC100 in Vero-E6 cells (72 h)
Settings: Vero-E6 cells, 72h

QUERY: Quick one: give measured CC100 (100% cytotoxic concentration) for COC(=O)[C@@]1(C)CCC[C@]2(C)c3cc(C(C)=O)c(C(C)C)cc3CC[C@@H]12 [Compound 15b]
RESULT: >50 µg/mL

QUERY: Quick one: give measured CC100 (100% cytotoxic concentration) for CC(C)c1cc2c(cc1O)[C@@]1(C)CCC[C@](C)(CO)[C@@H]1CC2=O [Compound 21b]
RESULT: >25 µg/mL

QUERY: Quick one: give measured CC100 (100% cytotoxic concentration) for COC(=O)[C@]1(C)CCC[C@]2(C)c3ccc(C(C)C)cc3CC[C@@H]12 [Compound 12, methyl dehydroabietate]
RESULT: >50 µg/mL

QUERY: Quick one: give measured CC100 (100% cytotoxic concentration) for CC(C)c1cc2c(cc1O)[C@@]1(C)CCC[C@@](C)(C(=O)O)[C@@H]1CC2=O [Compound 23a, liquiditerpenoic acid A]
RESULT: >50 µg/mL
